# assay.name: Plasma clearance in iv dosed Sprague-Dawley rat
# Type: ADME, organism-based
measurement.label: clearance (mL/min/kg)
Respond numerically; units are mL/min/kg and should not be typed.

Please review the entries below; each comes with its answer.
| given.smiles | clearance (mL/min/kg) |
| --- | --- |
| CCOc1nc(NC(=O)Cc2cc(OC)ccc2OC)cc(N)c1C#N | 20 |
| COc1cc(S(C)(=O)=O)c(OC)cc1CC(=O)Nc1cc(N)c(C#N)c(OC(C)C)n1 | 50 |

What the record says about CCOc1nc(NC(=O)Cc2cc(OC)c(S(C)(=O)=O)cc2OC)cc(N)c1Cl : clearance is 28.3

Briefly, clearance measured for CCOc1nc(NC(=O)Cc2cc(OC)c(S(C)(=O)=O)cc2OC)cc(N)c1C#N : 25

----------
# assayed.target: Death-associated protein kinase 3 (Homo sapiens, UniProt O43293)
# Sequence (O43293 whole entry): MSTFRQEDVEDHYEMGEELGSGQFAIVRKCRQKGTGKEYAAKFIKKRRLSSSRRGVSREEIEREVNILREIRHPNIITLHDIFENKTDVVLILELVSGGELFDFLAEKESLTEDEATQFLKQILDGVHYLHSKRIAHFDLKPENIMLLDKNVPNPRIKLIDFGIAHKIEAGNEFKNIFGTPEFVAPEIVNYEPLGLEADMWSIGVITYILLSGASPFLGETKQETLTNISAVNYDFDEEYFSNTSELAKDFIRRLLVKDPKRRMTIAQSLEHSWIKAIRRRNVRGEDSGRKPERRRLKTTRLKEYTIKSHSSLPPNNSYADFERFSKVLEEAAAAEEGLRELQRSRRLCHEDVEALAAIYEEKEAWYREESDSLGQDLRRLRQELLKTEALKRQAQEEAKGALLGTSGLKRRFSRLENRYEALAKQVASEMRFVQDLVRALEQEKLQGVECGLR
measurement.label: Ki

| given.smiles | endpoint.result |
| --- | --- |
| CC(=O)Nc1cc(N)c(C#N)c(-c2ccccc2)n1 | > 1400 nM |

For the compound CCOc1nc(NC(C)=O)cc(N)c1C#N , the measured Ki on Death-associated protein kinase 3 (Homo sapiens, UniProt O43293) was > 1400 nM

----------
# assayed.target: Inhibitor of nuclear factor kappa-B kinase subunit beta (Homo sapiens, UniProt O14920)
# Sequence (O14920 whole entry): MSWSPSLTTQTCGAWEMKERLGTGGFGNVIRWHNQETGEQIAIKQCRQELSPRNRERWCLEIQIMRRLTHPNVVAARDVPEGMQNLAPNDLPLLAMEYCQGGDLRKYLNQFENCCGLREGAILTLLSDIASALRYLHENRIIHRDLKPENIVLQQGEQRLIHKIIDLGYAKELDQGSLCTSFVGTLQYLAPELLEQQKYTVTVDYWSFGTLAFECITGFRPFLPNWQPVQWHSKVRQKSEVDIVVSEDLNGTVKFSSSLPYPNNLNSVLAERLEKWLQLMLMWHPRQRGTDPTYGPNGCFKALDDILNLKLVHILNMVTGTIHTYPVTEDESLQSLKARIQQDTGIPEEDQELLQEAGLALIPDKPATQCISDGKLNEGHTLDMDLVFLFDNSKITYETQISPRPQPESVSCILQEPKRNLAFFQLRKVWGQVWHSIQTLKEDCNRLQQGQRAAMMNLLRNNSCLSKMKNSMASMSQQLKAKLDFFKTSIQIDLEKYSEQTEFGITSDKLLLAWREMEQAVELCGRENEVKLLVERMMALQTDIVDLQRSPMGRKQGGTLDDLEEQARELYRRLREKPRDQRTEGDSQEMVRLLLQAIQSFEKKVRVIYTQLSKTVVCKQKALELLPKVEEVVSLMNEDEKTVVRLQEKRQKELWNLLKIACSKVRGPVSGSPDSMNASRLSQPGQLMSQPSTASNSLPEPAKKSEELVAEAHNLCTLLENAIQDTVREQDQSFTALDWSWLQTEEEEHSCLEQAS
# assay.name: Inhibition of IKK-beta
pKi: −log10 of the molar value.
measurement.label: pKi

The recorded pKi for CC(=O)Nc1cc(N)c(C#N)c(-c2ccccc2)n1 is < 5.49

----------
# assayed.target: Mitogen-activated protein kinase 13 (Homo sapiens, UniProt O15264)
# Sequence (O15264 whole entry): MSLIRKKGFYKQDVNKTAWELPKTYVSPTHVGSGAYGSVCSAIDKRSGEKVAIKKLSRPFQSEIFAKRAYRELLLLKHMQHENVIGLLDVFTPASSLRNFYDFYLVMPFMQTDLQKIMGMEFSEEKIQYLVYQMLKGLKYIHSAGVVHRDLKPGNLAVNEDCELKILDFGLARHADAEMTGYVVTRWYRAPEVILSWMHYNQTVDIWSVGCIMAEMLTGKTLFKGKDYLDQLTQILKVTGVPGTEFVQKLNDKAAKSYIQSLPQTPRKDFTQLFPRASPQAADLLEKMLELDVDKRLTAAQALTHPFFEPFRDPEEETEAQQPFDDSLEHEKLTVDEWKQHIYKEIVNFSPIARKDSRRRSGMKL
pKi: −log10 of the molar value.
measurement.label: pKi

Looking up CCOc1nc(NC(=O)Cc2cc(OC)ccc2OC)cc(N)c1C#N , I found its pKi recorded as < 5.16

----------
# assay.name: Oral bioavailability in Sprague-Dawley rat
# Type: ADME, organism-based
# condition.notes: in vivo
measurement.label: bioavailability (%)
Just the number in %, nothing appended.

| given.smiles | bioavailability [%] |
| --- | --- |
| CCOc1nc(NC(=O)Cc2cc(OC)c(S(C)(=O)=O)cc2OC)cc(N)c1Cl | 49 |
| CCOc1nc(NC(=O)Cc2cc(OC)ccc2OC)cc(N)c1C#N | 2.7 |
| CCOc1nc(NC(=O)Cc2cc(OC)c(S(C)(=O)=O)cc2OC)cc(N)c1C#N | 31 |

Per the record, COc1cc(S(C)(=O)=O)c(OC)cc1CC(=O)Nc1cc(N)c(C#N)c(OC(C)C)n1 has bioavailability of 5.7

----------
# assay.name: Half life in iv dosed Sprague-Dawley rat
# Assay type: ADME, organism-based
# condition.notes: in vivo
measurement.label: half-life (h)
Just the number please, in h, no unit attached.

Summary for this molecule, CCOc1nc(NC(=O)Cc2cc(OC)ccc2OC)cc(N)c1C#N : half-life is 1.4

// half-life value for CCOc1nc(NC(=O)Cc2cc(OC)c(S(C)(=O)=O)cc2OC)cc(N)c1Cl : 0.8

Lab note: CCOc1nc(NC(=O)Cc2cc(OC)c(S(C)(=O)=O)cc2OC)cc(N)c1C#N gave half-life of 2

For this molecule ( COc1cc(S(C)(=O)=O)c(OC)cc1CC(=O)Nc1cc(N)c(C#N)c(OC(C)C)n1 ), measured half-life is 2

----------
# assayed.target: Mitogen-activated protein kinase 8 (Homo sapiens, UniProt P45983)
# Sequence (P45983 whole entry): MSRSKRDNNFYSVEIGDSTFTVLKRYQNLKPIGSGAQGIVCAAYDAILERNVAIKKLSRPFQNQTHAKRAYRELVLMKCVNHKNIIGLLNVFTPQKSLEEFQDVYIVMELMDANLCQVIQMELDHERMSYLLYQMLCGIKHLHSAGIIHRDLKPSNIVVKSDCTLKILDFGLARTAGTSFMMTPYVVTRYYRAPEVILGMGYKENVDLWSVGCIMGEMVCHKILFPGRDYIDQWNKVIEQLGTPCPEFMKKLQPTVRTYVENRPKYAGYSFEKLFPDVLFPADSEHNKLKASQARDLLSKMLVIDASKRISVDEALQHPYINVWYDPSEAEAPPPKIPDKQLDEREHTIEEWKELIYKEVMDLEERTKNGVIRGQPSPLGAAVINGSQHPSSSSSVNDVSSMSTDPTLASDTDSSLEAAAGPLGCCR
# assay.name: Inhibition of JNK1-mediated ATF2 phosphorylation
pIC50: −log10 of the molar value.
Lab note: compare pIC50 against 6. Equal or greater, write True. Smaller, write False.

// below: answered compounds
| given.smiles | assayed.target | group |
| --- | --- | --- |
| CCOc1nc(NC(=O)CN2CCC(C(=O)NC(C)C)CC2)cc(N)c1C#N | Mitogen-activated protein kinase 8 (Homo sapiens, UniProt P45983) | True |
| CCOc1nc(NC(=O)CN(CC)CC)cc(N)c1C#N | Mitogen-activated protein kinase 8 (Homo sapiens, UniProt P45983) | False |

Problem: Check this compound for pIC50 at or above 6: CC(=O)Nc1cc(N)c(C#N)c(OC(C)C)n1
Result: True

Problem: Confirm if pIC50 reported for the compound CCCCSc1nc(NC(C)=O)cc(N)c1C#N is 6 or above.
Result: False

Problem: Does the reported pIC50 for CCCCNC(=O)C1CCN(CC(=O)Nc2cc(N)c(C#N)c(OCC)n2)CC1 fall at or above the 6 mark?
Result: True

Problem: Please tell me: is the compound CCOc1nc(NC(=O)C(C)C)cc(N)c1C#N at or over 6 in terms of pIC50?
Result: False

----------
# assay.name: Volume of distribution at steady state in iv dosed Sprague-Dawley rat
# Type: ADME, organism-based
# condition.notes: in vivo, read-out: Vss
As shown below, each of these compounds has a reported Vd value.
# output: bare number, implied unit L/kg

Here's what some known entries look like.
| given.smiles | Vd / L/kg |
| --- | --- |
| CCOc1nc(NC(=O)Cc2cc(OC)c(S(C)(=O)=O)cc2OC)cc(N)c1Cl | 1.6 |
| CCOc1nc(NC(=O)Cc2cc(OC)ccc2OC)cc(N)c1C#N | 1.2 |
| COc1cc(S(C)(=O)=O)c(OC)cc1CC(=O)Nc1cc(N)c(C#N)c(OC(C)C)n1 | 1.6 |

Record CCOc1nc(NC(=O)Cc2cc(OC)c(S(C)(=O)=O)cc2OC)cc(N)c1C#N , field Vd: 1.5

----------
# assayed.target: c-Jun N-terminal kinase, JNK (Homo sapiens, UniProt P45983+P53779+P45984)
# assay.name: Inhibition of cJun phosphorylation in HepG2 cell line
Criterion: EC50 strictly under 2 µM. Met: 1 (yes). Not met: 0 (no).

The following molecules have reported results that may help.
| given.smiles | group |
| --- | --- |
| CCOc1nc(NC(=O)Cc2ccc(C)cc2)cc(N)c1C#N | 0 (no) |
| CCOc1nc(NC(=O)Cc2cc(OC)c([N+](=O)[O-])cc2OC)cc(N)c1C#N | 1 (yes) |
| CCOc1nc(NC(=O)Cc2ccccc2OC)cc(N)c1C#N | 1 (yes) |
| CCOc1nc(NC(=O)Cc2cc(OC)c(Br)cc2OC)cc(N)c1C#N | 1 (yes) |
| CCCN(CCO)CC(=O)Nc1cc(N)c(C#N)c(OCC)n1 | 0 (no) |

Next molecule, please.
Problem: State whether 2 µM exceeds EC50 recorded for CCOc1nc(NC(=O)Cc2ccc(OC)cc2)cc(N)c1C#N .
Result: 1 (yes)

----------
# assay.name: Half life in po dosed Sprague-Dawley rat
# Format: ADME, organism-based
# condition.notes: in vivo
This section presents molecules with their documented half-life values.
Please respond with the number in h and leave the unit unwritten.

Take a look at these entries with their results.
| given.smiles | measure.unit | endpoint.result |
| --- | --- | --- |
| COc1cc(S(C)(=O)=O)c(OC)cc1CC(=O)Nc1cc(N)c(C#N)c(OC(C)C)n1 | h | 2.9 |
| CCOc1nc(NC(=O)Cc2cc(OC)c(S(C)(=O)=O)cc2OC)cc(N)c1C#N | h | 1.5 |
| CCOc1nc(NC(=O)Cc2cc(OC)ccc2OC)cc(N)c1C#N | h | 1.1 |

Now for a further molecule.
Lab note: measured half-life of CCOc1nc(NC(=O)Cc2cc(OC)c(S(C)(=O)=O)cc2OC)cc(N)c1Cl was 2.1

----------
# assayed.target: Mitogen-activated protein kinase 9 (Homo sapiens)
# Sequence (P45984 whole entry): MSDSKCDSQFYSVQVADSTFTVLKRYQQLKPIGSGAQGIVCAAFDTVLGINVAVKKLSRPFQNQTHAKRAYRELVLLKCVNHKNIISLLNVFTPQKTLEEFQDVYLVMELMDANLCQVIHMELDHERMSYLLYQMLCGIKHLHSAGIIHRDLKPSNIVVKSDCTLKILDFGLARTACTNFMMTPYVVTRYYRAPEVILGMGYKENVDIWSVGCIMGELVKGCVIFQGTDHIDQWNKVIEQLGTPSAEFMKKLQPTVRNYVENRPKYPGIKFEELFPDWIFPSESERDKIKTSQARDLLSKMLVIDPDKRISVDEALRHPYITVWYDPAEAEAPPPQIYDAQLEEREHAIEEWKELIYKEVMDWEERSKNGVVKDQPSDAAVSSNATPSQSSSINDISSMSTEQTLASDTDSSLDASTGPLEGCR
# assay.name: Inhibition of JNK2-mediated ATF2 phosphorylation
Examples of compounds with documented log10 of IC50 follow.
Parameter value (number): base-10 log of IC50 in µM.

| given.smiles | log10 of IC50 |
| --- | --- |
| CCCCNC(=O)C1CCN(CC(=O)Nc2cc(N)c(C#N)c(OCC)n2)CC1 | -0.74 |
| CCOc1nc(NC(=O)Cc2cc(OC)c([N+](=O)[O-])cc2OC)cc(N)c1C#N | -1.00 |
| CCOc1nc(NC(=O)Cc2ccccc2C)cc(N)c1C#N | -0.13 |
| CCOc1nc(NC(=O)Cc2cccc(Cl)c2)cc(N)c1C#N | -0.05 |
| CCOc1nc(NC(=O)CN(CC)CC)cc(N)c1C#N | 0.80 |
| CCOc1nc(NC(=O)Cc2ccccc2Cl)cc(N)c1C#N | 0.69 |
| CC(=O)Nc1cc(N)c(C#N)c(OCCC(=O)O)n1 | 0.69 |
| COc1nc(NC(C)=O)cc(N)c1C#N | 0.65 |
| CCOc1nc(NC(=O)Cc2ccc(OC)cc2)cc(N)c1C#N | -0.56 |
| CCOc1nc(NC(=O)Cc2ccc(C)cc2)cc(N)c1C#N | -0.44 |

# compound CCOc1nc(NC(=O)Cc2ccccc2)cc(N)c1C#N ; its log10 of IC50 = -0.11

# log10 of IC50 of CCOc1nc(NC(=O)CN2CCC(O)CC2)cc(N)c1C#N = -0.19

Noted for COc1ccc(OC)c(CC(=O)Nc2cc(N)c(C#N)c(OCCO)n2)c1 : its log10 of IC50 reads -0.62

Reported log10 of IC50 of CCOc1nc(NC(=O)CN2CCCCC2)cc(N)c1C#N : 0.53

Lab note: measured log10 of IC50 of CCOc1nc(NC(=O)Cc2ccccc2OC)cc(N)c1C#N was -0.59

Quick note, log10 of IC50 for CC(=O)Nc1cc(N)c(C#N)c(OC(C)C)n1 landed at -0.33

// log10 of IC50 lookup, compound = COc1ccc(OC)c(CC(=O)Nc2cc(N)c(C#N)c(OCCS(C)(=O)=O)n2)c1 , result: -0.13

Documented log10 of IC50 of CCCN(CCO)CC(=O)Nc1cc(N)c(C#N)c(OCC)n1 : -0.13

In plain terms, COc1ccc(OC)c(CC(=O)Nc2cc(N)c(C#N)cn2)c1 has a documented log10 of IC50 of 0.71
